Target: Mitogen-activated protein kinase kinase kinase 1/RAF proto-oncogene serine/threonine-protein kinase (Homo sapiens, UniProt P04049+Q02750)
Sequence (P04049 whole entry): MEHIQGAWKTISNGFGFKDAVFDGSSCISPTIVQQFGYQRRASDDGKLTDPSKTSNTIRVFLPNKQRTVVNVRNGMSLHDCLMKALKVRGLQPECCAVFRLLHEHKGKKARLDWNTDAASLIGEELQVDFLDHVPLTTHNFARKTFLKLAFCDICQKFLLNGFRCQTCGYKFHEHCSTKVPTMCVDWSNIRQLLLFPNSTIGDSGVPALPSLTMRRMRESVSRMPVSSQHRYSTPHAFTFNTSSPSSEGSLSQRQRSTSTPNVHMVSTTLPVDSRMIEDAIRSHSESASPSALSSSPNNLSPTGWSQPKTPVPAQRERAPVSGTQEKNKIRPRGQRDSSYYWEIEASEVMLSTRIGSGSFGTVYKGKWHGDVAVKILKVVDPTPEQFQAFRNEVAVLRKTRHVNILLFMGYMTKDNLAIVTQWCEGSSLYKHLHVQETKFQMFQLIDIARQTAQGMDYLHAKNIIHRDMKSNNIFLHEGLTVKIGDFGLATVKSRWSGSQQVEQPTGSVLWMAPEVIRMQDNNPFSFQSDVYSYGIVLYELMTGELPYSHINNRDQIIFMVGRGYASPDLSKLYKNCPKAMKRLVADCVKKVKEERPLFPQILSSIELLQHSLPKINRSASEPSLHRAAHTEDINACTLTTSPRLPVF
Sequence (Q13233 whole entry, further chain): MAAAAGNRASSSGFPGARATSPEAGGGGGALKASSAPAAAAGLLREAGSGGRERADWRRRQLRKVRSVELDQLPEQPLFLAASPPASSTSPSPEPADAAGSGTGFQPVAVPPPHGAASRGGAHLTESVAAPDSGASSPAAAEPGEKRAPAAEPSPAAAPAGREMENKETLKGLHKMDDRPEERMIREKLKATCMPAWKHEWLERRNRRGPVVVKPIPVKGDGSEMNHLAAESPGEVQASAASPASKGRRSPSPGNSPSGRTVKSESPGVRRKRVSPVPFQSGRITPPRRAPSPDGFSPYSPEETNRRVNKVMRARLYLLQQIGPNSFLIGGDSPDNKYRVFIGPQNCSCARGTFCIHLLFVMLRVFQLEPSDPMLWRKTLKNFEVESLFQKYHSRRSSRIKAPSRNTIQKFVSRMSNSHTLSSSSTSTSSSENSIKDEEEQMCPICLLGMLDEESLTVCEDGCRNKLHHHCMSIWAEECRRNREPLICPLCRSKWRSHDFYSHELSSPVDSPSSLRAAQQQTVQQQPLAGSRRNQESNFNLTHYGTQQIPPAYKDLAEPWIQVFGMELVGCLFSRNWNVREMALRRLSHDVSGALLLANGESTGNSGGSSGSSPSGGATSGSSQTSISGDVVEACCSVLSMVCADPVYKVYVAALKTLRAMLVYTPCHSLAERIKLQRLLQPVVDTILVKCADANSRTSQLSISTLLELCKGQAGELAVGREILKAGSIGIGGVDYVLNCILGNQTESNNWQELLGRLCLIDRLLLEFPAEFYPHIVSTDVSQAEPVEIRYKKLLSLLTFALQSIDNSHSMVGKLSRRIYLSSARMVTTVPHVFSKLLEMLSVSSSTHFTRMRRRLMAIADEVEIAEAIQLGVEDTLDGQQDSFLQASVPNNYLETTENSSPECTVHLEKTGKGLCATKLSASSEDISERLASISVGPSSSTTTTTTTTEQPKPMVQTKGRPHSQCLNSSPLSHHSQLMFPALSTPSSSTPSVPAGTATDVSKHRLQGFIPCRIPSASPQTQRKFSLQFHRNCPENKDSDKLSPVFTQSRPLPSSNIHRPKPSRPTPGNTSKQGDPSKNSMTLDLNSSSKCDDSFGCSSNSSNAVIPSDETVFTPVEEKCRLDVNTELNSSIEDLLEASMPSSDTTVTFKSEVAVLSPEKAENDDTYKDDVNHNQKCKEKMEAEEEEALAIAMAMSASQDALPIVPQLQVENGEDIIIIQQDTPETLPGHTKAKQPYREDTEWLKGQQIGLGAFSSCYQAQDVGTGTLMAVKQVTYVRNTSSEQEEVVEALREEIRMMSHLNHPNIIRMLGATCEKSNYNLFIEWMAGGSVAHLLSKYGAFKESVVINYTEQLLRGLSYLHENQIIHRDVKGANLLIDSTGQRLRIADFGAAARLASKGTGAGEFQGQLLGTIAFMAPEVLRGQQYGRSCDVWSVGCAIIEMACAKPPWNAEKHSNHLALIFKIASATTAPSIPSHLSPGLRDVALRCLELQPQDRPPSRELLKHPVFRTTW
Test: AlphaLISA Assay
Method: 5 μL 4×MEK1 stock solution was added to wells A1-P20 by multichannel pipettes. […] 5 μL 4×CRAF stock solution at different concentrations or 5 μL or 10 μL AlphaLISA buffer was added by multichannel pipettes. The plate was sealed, centrifuged at 1000 rpm for 1 minute, and incubated at room temperature for 60 minutes. 5 μL 4×glutathione acceptor beads were first added to all wells by multichannel pipettes. […]
MEASURED ATTRIBUTE: Kd (nM)

Can you share its Kd? I mean this molecule: Cc1c(Oc2cccc(NS(=O)(=O)NC3CC3)c2Cl)c(C(=O)NC2CC2)c(Nc2ccc(I)cc2F)n(C)c1=O [US20230382863, Compound I-42]
0.57

Can you share its Kd? I mean this molecule: CNS(=O)(=O)Nc1cccc(Oc2c(C(=O)NC3CC3)c(Nc3ccc(I)cc3F)n(C)c(=O)c2C)c1OC(F)(F)F [US20230382863, Compound I-40]
0.47

Can you share its Kd? I mean this molecule: CNS(=O)(=O)Nc1cccc(Oc2c(C(=O)NC3CC3)c(Nc3ccc(I)cc3F)n(C)c(=O)c2C)c1OC [US20230382863, Compound I-1]
0.42

Can you share its Kd? I mean this molecule: COCCNS(=O)(=O)Nc1cccc(Oc2c(C(=O)NC3CC3)c(Nc3ccc(I)cc3F)n(C)c(=O)c2C)c1Cl [US20230382863, Compound I-55]
0.51

Can you share its Kd? I mean this molecule: CNS(=O)(=O)Nc1cccc(Oc2c(C(=O)NCC(F)(F)F)c(Nc3ccc(I)cc3F)n(C)c(=O)c2C)c1Cl [US20230382863, Compound I-45]
0.38

P = CCNS(=O)(=O)Nc1cccc(Oc2c(C(=O)NC3CC3)c(Nc3ccc(I)cc3F)n(C)c(=O)c2C)c1Cl [US20230382863, Compound I-43]
Q = CCNC(=O)c1c(Oc2cccc(NS(=O)(=O)NC)c2Cl)c(C)c(=O)n(C)c1Nc1ccc(I)cc1F [US20230382863, Compound I-54]
Input pair: P , Q . Output: entry with lower Kd. # reply format: chosen label
Q
